Target: Lysosomal acid glucosylceramidase (Homo sapiens, UniProt P04062)
Sequence (P04062 whole entry): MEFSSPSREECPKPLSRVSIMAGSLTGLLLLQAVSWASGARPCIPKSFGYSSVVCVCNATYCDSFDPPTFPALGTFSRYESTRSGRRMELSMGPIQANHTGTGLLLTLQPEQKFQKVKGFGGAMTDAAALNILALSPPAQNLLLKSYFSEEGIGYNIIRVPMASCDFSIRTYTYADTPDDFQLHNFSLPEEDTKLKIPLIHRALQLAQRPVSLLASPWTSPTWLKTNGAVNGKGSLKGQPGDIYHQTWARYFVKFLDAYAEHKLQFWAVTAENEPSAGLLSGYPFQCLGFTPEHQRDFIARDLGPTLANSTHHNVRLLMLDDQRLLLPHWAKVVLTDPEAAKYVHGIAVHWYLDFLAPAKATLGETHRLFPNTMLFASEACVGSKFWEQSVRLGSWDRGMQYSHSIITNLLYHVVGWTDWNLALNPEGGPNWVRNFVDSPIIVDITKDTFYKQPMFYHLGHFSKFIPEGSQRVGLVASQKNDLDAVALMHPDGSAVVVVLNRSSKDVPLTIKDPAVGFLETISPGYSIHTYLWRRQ
Measure Name: pKi
Numbers only, as −log10 of the molar value.

# CCCC1(CCC)NC[C@@H](O)[C@H](O)[C@H]1CO with Lysosomal acid glucosylceramidase (Homo sapiens, UniProt P04062): pKi is 5.85

Measured values drawn from ChEMBL document CHEMBL5726543 for this set.
